B1: Caulobacter ParB omega fusion; a variant is named by its letters at X, in order, B8GW30 (parent)
chain: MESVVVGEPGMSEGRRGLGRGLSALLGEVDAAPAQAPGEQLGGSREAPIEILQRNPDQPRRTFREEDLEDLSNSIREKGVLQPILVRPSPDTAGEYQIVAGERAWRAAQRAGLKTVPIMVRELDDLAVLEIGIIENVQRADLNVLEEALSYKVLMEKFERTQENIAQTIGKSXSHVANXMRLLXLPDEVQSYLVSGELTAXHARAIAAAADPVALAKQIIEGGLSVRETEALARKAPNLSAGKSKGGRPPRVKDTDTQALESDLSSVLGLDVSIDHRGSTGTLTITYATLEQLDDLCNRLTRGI

- Variants of: B1
- Experiment Description: one-hybrid fitness for binding NBS DNA (the Noc-binding site; scaled: cognate 1, non-cognate 0); higher = stronger binding
- Condition Summary: with NBS DNA site
In all, about 81,000 sequences were measured (“one-hybrid fitness for binding NBS DNA”: median about -0.1, highest 2% from about 0.36 on). For the sample, the highest values were picked, then their nearest neighbours and some sequences at random.
# one-hybrid fitness for binding NBS DNA annotations

TRDR	≤ 0.2
PPPL	≤ 0.2
SHME	≤ 0.2
LKMC	≤ 0.2
YEDC	≤ 0.2
PHPV	≤ 0.2

Req: Data request, read-out one-hybrid fitness for binding NBS DNA, for `QYMT`
Resp: 0.416

Req: What would you report for `PANW` ?
Resp: ≤ 0.2

Req: Please give the result for `QRTN` too.
Resp: 0.429

Req: Next variant: `QYMP`
Resp: ≤ 0.2

Req: Also, `TTTW` please.
Resp: ≤ 0.2
